The entries below come with measured PBM binding z-score values attached.
- System: PPARg homodimer (NR concentration 180 nM)
- assay: PBM binding z-score (relative to random genomic background probes); higher = stronger binding; sequences stand for … in GC…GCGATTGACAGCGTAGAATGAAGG

chain-sequence	reading
TTTTGTAGATCAAGCAGGTTAAGAAAGCCTGAGT	0.487
TCTTGTAGTTCAATAGAGGTTAAGAAAGTGCGCT	1.14

We now examine a further sequence.
Reported PBM binding z-score for PPARg homodimer (NR concentration 180 nM), given CCAGACAGGCGAGAAGGTAACTCAGCCTCGATTA ?
-0.649

###

- Tested on: LXRb:RXRa (NR concentration 270 nM, RXRa partner concentration 90 nM)
- assay: PBM binding z-score (relative to random genomic background probes); higher = stronger binding; sequences stand for … in GC…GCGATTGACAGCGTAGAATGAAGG
Note: every record was labeled by where its PBM binding z-score sits among LOW (below 0.7), MEDIUM (0.7 to below 2), HIGH (2 or more)

chain-sequence	label
AATACAGGGTCACTAAGCCAGAGTAGGTACGAAT	HIGH

// bin(item) where item = TCATATAGCTAATACAGGTGAAAGTCGGCATCTA
LOW

// bin(item) where item = CCGACTGGGGCAAGGTTACAATAACGCACAGCCA
LOW

// bin(item) where item = TCGAGTACGTTAGTCGGGGCATTCAGCCAACATA
LOW

// bin(item) where item = CGAACTAGGCCAAGGACAGTGAATCTCCGCACGC
LOW

###

- System: PPARg:RXRa 270nM:90nM, anti-RXR (NR concentration 270 nM, RXRa partner concentration 90 nM)
- assay: PBM binding z-score (relative to random genomic background probes); higher = stronger binding; sequences stand for … in GC…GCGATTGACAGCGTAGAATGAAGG
Note: every record was labeled by where its PBM binding z-score sits among small value: < 1; mid value: ≥ 1 and < 4; large value: ≥ 4

A selection of reference data follows.
chain-sequence	label
TCATATATGTAAAGGTGAAAGTCGAACGATATGA	mid value
CCTACTGGGCCACAGGTCATTGATTCCAATGCTC	large value
CGAACTAGGTCATCCAGGAGAGTGAATACATTGA	large value
GCTATTAGTTGAAATGGCAACCGAATGATTCTCG	small value
CGAACTAGGTCAAGCACAGTGAATCTCCGCACGC	large value

// bin(item) where item = CCTAGCAGGCCAATCTGGGTAACTCAAGGCTTGA
small value

// bin(item) where item = CCGACTGGGGCAGAAAGGTAACCATACCATCCGG
mid value

// bin(item) where item = ATCTCTAGGTAAAGATATTTCAGTGAATGCAAAT
small value

// bin(item) where item = CGTCCAATGTCAATGCTAGGTCAGTGAAAGCATT
small value

// bin(item) where item = TCTTGTAGATCACAGGTTAAGAAAGCCGAAGCCT
large value

// bin(item) where item = GCTGCTATGTCAACTGATGGTCAGCTAAAGCTCG
small value

// bin(item) where item = AGAATGAGGTTATACGTAGATCATGGAAGAAAGT
mid value

// bin(item) where item = TAAATGAGGTTATAAGATCAGGGAACGTTGCAAA
mid value

// bin(item) where item = GATACATGGTCAGCTAGAGGCCAGAGTATGGAAA
small value

Measured values drawn from the supplement of paper PMC6555819 for this set.
